Source of measurements: ChEMBL document CHEMBL3792297

# Tested on: KM12
# Protocol text: Growth inhibition of human KM12 cells at 10 uM after 48 hrs by SRB assay relative to control
# Assay type: functional
# Measurement setup: KM12, 48 h, read-out: GI
Recorded inhibition of growth at 10 µM values for a group of molecules are listed next.
Please make sure the unit comes right after the number.

# count of solved cases: 5
>>> df
                      smiles_representation  result
0  COc1ccc(C(=O)N2c3ccccc3Sc3ccccc32)c(OC)c1     86%
1  O=C(c1ccc2c(c1)Sc1ccccc1N2)c1c[nH]c2ccccc12     87%
2    COc1ccc(C(=O)N2c3ccccc3Sc3ccccc32)cc1F     81%
3  COc1ccc(C(=O)N2c3ccccc3Sc3ccccc32)c(C(F)(F)F)c1     82%
4  O/N=C(/c1ccc2c(c1)Sc1ccccc1N2)c1c[nH]c2ccccc12     76%

Input line: Look at this molecule and give its reported inhibition of growth at 10 µM. `COc1ccc(C(=O)N2c3ccccc3Sc3ccccc32)c(F)c1`
Output line: 77%
